experiment: method code SF-AS, from DOI: 10.1111/j.1399-3011.1986.tb03252.x; details: pH 7.0
assay-endpoint: logD

Known results for molecules:
molecule: CCCC(NC(C)=O)C(N)=O (stereo not drawn)
logD: -0.45

molecule: CC(=O)NC(C)(C)C(N)=O
logD: -0.87

molecule: C=CCC(NC(C)=O)C(N)=O (stereo not drawn)
logD: -0.86

molecule: CC(=O)NC(Cc1ccccc1)(Cc1ccccc1)C(N)=O
logD: 2.09

molecule: CC(=O)NC(C)C(N)=O (stereo not drawn)
logD: -1.41

molecule: CC(=O)NCC(N)=O
logD: -1.68

I = C=CCC(CC=C)(NC(C)=O)C(N)=O
II = CCCC(CCC)(NC(C)=O)C(N)=O
Between the entries labelled I and II , which has a larger logD value on record? // output: label of the selected item II
